# credit: ChEMBL document CHEMBL1147765

Target: Sodium- and chloride-dependent glycine transporter 1 (Homo sapiens)
Sequence (P48067 whole entry): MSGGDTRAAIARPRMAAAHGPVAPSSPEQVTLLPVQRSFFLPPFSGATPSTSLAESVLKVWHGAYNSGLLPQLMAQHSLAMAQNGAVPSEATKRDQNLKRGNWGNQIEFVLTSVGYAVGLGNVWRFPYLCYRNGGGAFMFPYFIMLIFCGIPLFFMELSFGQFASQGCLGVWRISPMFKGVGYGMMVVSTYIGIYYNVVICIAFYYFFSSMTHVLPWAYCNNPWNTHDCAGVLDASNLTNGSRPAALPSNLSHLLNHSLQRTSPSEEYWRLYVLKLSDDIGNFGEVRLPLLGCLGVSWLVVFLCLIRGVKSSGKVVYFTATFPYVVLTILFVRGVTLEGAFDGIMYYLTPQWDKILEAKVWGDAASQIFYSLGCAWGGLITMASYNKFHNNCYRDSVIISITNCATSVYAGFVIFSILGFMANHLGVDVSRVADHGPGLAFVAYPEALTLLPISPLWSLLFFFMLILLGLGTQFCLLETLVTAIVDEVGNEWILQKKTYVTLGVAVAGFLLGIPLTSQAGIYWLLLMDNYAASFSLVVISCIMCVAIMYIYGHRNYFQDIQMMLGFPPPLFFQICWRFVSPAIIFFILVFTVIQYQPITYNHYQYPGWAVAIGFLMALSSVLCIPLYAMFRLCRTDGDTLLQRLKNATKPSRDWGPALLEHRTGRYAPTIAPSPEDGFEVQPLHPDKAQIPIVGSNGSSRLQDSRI
Experiment: Displacement of [3H]glycine from human GlyT1 by radiometric assay
pEC50: −log10 of the molar value.
// label = 1 if pEC50 is not less than 7, otherwise -1

Below are worked cases with known answers.
CCCN1CNC(=O)C12CCN([C@@H]1CCCC[C@@]1(O)c1ccccc1)CC2 (racemic); -1
O=C1NCN(c2ccccc2)C12CCN([C@@H]1CCCC[C@@]1(O)c1ccccc1)CC2 (racemic); 1

Query: Assess whether reported pEC50 for O=C1NCN(c2ccccc2)C12CCN([C@@H]1CCCC[C@@]1(O)c1ccc(Cl)c(Cl)c1)CC2 (racemic) sits at 7 or higher.
Response: -1

Query: Assess whether reported pEC50 for O=C1NCN(c2ccc(F)cc2)C12CCN([C@@H]1CCCC[C@@]1(O)c1ccc(Cl)cc1)CC2 (racemic) sits at 7 or higher.
Response: 1

Query: Assess whether reported pEC50 for O=C1NCN(c2ccc(Cl)cc2)C12CCN([C@@H]1CCCC[C@@]1(O)c1ccc(F)cc1)CC2 (racemic) sits at 7 or higher.
Response: 1

Query: Assess whether reported pEC50 for O=C1NCN(c2ccccc2)C12CCN([C@@H]1CCCC[C@@]1(O)c1ccc(F)cc1)CC2 (relative stereo) sits at 7 or higher.
Response: 1

---

Assay: Clearance in human microsomes
Type: ADME, Microsome
Settings: human liver microsomes
In this section, each of the compounds is paired with its reported microsomal CLint.
Response body: numeric value in µL/min/mg, unit text excluded.

Would you please look over these solved cases?
O=C1NCN(c2ccccc2)C12CCN([C@H]1CCCC[C@H]1c1ccccc1)CC2 (racemic); 68
CCCN1CNC(=O)C12CCN([C@H]1CCCC[C@H]1c1ccccc1)CC2 (racemic); 25
CCCN1CNC(=O)C12CCN([C@@H]1CCCC[C@@]1(O)c1ccccc1)CC2 (racemic); 5

Query O=C1NCN(c2ccc(F)cc2)C12CCN([C@@H]1CCCC[C@@]1(O)c1ccc(F)cc1)CC2 (racemic) yields microsomal CLint of 92

---

Target: Sodium- and chloride-dependent glycine transporter 2 (Homo sapiens)
Sequence (Q9Y345 whole entry): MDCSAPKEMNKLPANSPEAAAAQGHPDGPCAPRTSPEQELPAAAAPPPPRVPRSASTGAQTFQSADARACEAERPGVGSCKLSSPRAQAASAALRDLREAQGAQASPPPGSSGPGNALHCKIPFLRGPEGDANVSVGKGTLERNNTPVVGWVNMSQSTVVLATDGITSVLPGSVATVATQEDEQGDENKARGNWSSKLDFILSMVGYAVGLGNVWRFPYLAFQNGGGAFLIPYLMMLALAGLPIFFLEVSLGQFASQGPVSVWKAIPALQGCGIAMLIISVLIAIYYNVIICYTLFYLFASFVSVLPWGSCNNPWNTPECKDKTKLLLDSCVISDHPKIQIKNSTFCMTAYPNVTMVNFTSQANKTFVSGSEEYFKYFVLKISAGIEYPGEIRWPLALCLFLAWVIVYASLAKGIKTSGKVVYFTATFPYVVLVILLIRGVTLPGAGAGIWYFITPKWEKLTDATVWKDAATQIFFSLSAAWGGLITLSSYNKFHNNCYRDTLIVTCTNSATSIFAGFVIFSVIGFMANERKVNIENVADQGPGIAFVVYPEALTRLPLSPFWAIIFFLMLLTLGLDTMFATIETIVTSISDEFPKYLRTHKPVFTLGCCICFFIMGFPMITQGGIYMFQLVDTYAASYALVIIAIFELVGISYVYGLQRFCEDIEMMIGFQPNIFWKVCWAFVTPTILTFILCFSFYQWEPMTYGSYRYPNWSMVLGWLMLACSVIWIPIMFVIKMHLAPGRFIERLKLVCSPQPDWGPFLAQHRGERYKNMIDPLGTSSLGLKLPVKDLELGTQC
Assay: Displacement of [3H]glycine from human GlyT2 by radiometric assay
measured parameter: pEC50
Formally, pEC50 is defined as -log10 of the concentration c, with c in mol/L.

Would you please look over these solved cases?
Cc1ccccc1[C@]1(O)CCCC[C@H]1N1CCC2(CC1)C(=O)NCN2c1ccccc1 (racemic); 4.15
O=C1NCN(c2ccccc2)C12CCN([C@@H]1CCCC[C@@]1(O)c1cccc(Cl)c1)CC2 (racemic); 4.68
O=C1NCN(c2ccccc2)C12CCN([C@@H]1COCC[C@@]1(O)c1ccccc1)CC2 (racemic); 4.46
COc1ccc([C@]2(O)CCCC[C@H]2N2CCC3(CC2)C(=O)NCN3c2ccccc2)cc1 (racemic); 4.17
O=C1NCN(c2ccc(Cl)cc2)C12CCN([C@@H]1CCCC[C@@]1(O)c1ccc(F)cc1)CC2 (racemic); 5.60

Query O=C1NCN(c2ccccc2)C12CCN([C@H]1CCCC[C@@]1(O)c1ccccc1)CC2 (racemic) yields pEC50 of 4.59

Query COc1cccc([C@]2(O)CCCC[C@H]2N2CCC3(CC2)C(=O)NCN3c2ccccc2)c1 (racemic) yields pEC50 of 4.39

---

Molecular target: Sodium- and chloride-dependent glycine transporter 2 (Homo sapiens)
Assay: Displacement of [3H]glycine from human GlyT2 by radiometric assay
In this section, each of the compounds is paired with its reported pEC50.
Formally, pEC50 is defined as -log10 of the concentration c, with c in mol/L.

Would you please look over these solved cases?
O=C1NCN(c2ccccc2)C12CCN([C@@H]1CCCC[C@@]1(O)c1ccccc1)CC2 (racemic); 4.14
O=C1NCN(c2ccc(F)cc2)C12CCN([C@@H]1CCCC[C@@]1(O)c1ccc(F)cc1)CC2 (racemic); 4.44

Query Cc1ccc([C@]2(O)CCCC[C@H]2N2CCC3(CC2)C(=O)NCN3c2ccccc2)cc1 (racemic) yields pEC50 of 4.60

Query O=C1NCN(c2ccccc2)C12CCN([C@@H]1CCCC[C@@]1(O)c1ccc(F)cc1)CC2 (relative stereo) yields pEC50 of 4.24

Query COc1ccc(N2CNC(=O)C23CCN([C@@H]2CCCC[C@@]2(O)c2ccc(Cl)cc2)CC3)cc1 (racemic) yields pEC50 of 4.60

Query O=C1NCN(c2ccccc2)C12CCN([C@@H]1CCCC[C@@]1(O)c1ccc(Cl)c(Cl)c1)CC2 (racemic) yields pEC50 of 5.22

Query O=C1NCN(c2ccc(F)cc2)C12CCN([C@@H]1CCCC[C@@]1(O)c1ccc(Cl)cc1)CC2 (racemic) yields pEC50 of 4.72

Query O=C1NCN(c2ccccc2)C12CCN([C@@H]1CCCC[C@@]1(O)c1ccc(Cl)cc1)CC2 (racemic) yields pEC50 of 4.80
